pKd: −log10 of the molar value.
kinase enzymes (Homo sapiens, UniProt P48736): recorded pKd for assorted molecules
Sequence (P48736 whole entry): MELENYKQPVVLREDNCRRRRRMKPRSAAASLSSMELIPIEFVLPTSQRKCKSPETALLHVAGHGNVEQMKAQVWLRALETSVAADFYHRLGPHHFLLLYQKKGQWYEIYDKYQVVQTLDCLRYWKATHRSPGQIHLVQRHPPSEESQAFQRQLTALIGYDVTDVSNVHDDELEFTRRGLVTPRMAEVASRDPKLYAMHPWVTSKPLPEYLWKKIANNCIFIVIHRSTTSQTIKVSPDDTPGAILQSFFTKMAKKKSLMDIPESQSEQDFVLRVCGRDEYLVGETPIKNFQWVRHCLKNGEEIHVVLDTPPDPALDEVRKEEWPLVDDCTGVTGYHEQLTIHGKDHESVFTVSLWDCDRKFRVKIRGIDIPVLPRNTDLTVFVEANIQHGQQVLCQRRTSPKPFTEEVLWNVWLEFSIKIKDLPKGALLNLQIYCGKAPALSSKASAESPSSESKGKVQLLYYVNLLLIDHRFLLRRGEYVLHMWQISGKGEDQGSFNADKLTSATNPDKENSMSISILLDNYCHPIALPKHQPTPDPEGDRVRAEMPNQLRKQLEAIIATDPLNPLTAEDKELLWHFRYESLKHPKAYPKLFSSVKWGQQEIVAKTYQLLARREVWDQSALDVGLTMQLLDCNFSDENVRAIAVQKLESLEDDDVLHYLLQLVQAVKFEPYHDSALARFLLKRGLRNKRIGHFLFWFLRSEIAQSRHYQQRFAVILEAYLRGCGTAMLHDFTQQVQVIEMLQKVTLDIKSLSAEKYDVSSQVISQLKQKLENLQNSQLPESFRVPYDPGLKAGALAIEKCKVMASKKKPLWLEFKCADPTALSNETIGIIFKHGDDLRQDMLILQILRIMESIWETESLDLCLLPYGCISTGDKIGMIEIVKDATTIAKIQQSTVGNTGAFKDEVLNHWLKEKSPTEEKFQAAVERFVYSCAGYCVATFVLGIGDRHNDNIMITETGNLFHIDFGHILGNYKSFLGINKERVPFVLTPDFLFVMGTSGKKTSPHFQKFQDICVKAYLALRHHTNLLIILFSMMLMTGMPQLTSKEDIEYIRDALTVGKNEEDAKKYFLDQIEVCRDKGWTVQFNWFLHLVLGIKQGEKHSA
metric: pKd

[[record]]
molecule = "CC(Nc1cc(F)cc(F)c1)c1cc(CO)cc2ncc(N3CCOCC3)nc12 (single isomer, unassigned) [Compound 154a]"
reported_value = 6.13


1 = CN[C@@H]1CCN(C(=O)c2cc(C(C)Nc3ccc(F)c(F)c3)c3nc(N4CCOCC4)cnc3c2)C1 (single isomer, unassigned) [Compound 371a]
2 = CC(Nc1cc(F)cc(F)c1)c1cc(-c2cc[nH]n2)cc2ncc(N3CCOCC3)nc12 (stereo not drawn) [Compound 304]
3 = CC(Nc1cc(F)cc(F)c1)c1cc(C(=O)N2CCNC(C(F)(F)F)C2)cc2ncc(N3CCOCC3)nc12 (single isomer, unassigned) [Compound 237c]
Arrange the 3 molecules by rising pKd, starting with the smallest. A ranking is expressed here by listing the labels in the requested order.
2, 3, 1

Where do these numbers come from? They come from patent US10526316B2.
